- Tested on: NCI/ADR-RES ovarian
- EXPERIMENTAL PROTOCOL: NCI tumour cell line growth inhibition, 48 h
OBSERVED PROPERTY: TGI

A selection of reference data follows.
Problem: Any idea what TGI was measured for "Cc1cc2c(=O)c3ccccc3oc2c(C#N)c1C" ?
Solution: > 100 µM

Problem: Param item: "C(=C\c1nc2ccccc2s1)/c1ccc(N2CCOCC2)s1"
Solution: > 100 µM

Problem: Param item: "O=C(Nc1ccc(Cl)cc1F)c1cc(Cl)ccc1O"
Solution: 2.38 µM

Problem: Param item: "COc1cc(/C=C2/C(=O)N=C(NC(C)=O)N2C)ccc1OC(C)=O"
Solution: > 100 µM

Problem: Param item: "CCNC(=O)c1ccc2c(c1)nc(-c1ccc(Cl)cc1)n2-c1cc(C(C)(C)C)[nH]n1"
Solution: 9.33 µM

Problem: Param item: "COc1ccc(NC(=O)CC(=O)n2nc(-c3ccccc3)c(N=Nc3ccccc3C)c2-c2ccccc2)cc1"
Solution: > 100 µM

Problem: Param item: N#Cc1c(-c2ccccc2)c(C#N)c(=S)n(C2OCC(O)C(O)C2O)c1N (stereo not given)
Solution: > 100 µM

Problem: Param item: Nc1nc(Cl)nc2c1ncn2C1CCC(COP(=O)(O)OP(=O)(O)OP(=O)(O)O)O1 (stereo not given)
Solution: 55.8 µM

Problem: Param item: "COc1cc(/C=N/Nc2ncnc3c2cnn3Cc2ccccc2)ccc1O"
Solution: > 25 µM

Problem: Param item: "CCN(CC)C(=O)N[C@@H](Cc1ccccc1)C(=O)NC"
Solution: > 100 µM

Further cases:
Problem: Any idea what TGI was measured for O=C(OC(CNc1c(C(=O)c2ccccc2)c(=O)n(Cc2ccccc2)c(=O)n1Cc1ccccc1)CN1CCCCC1)c1ccccc1 (stereo not given) ?
Solution: 34.5 µM

Problem: Param item: CC1=C(c2ccc(C)cc2)NC(=S)C(C)C(c2ccc(C)cc2)=N1 (stereo not given)
Solution: > 100 µM

Problem: Param item: Cc1ccc(C2SC(N)=Nc3c2c(C)nn3C(=O)c2ccc(Cl)cc2)cc1 (stereo not given)
Solution: > 10 µM

Problem: Param item: C/C=C(\C)C(=O)OC1C2C(C)C(=O)OC2C(O)C(C)C2C=CC(=O)C21C (stereo not given)
Solution: 49.9 µM

Problem: Param item: "Cc1[nH]c2ccccc2c1C1=CC(=O)C=CC1=O"
Solution: 28.4 µM

Problem: Param item: "COc1cc(S(=O)(=O)Nc2ccc(-c3csc(/N=C\C=C\c4ccccc4)n3)cc2)ccc1Cl"
Solution: > 100 µM

Problem: Param item: Cc1csc(-c2ccc3c(c2)COC3(CCCN(C)C)c2ccc(F)cc2)c1 (stereo not given)
Solution: 3.44 µM

Problem: Param item: "CN(C)c1ccc(/C=C2\N=C(c3ccccc3)N(/N=C3\C(=O)Nc4ccccc43)C2=O)cc1"
Solution: > 100 µM

Problem: Param item: COc1cc2c(cc1OC)CN1CCc3ccccc3CC1C2 (stereo not given)
Solution: > 100 µM

Problem: Param item: O=C(NCc1cccs1)OC1CC2CCC1C2 (stereo not given)
Solution: > 100 µM

====

- Tested on: MALME-3M melanoma
- EXPERIMENTAL PROTOCOL: NCI tumour cell line growth inhibition, 48 h
OBSERVED PROPERTY: TGI (µM)
Record the value in µM, omitting the unit from your answer.

A selection of reference data follows.
Problem: Any idea what TGI was measured for "COc1ccc(NC(=O)CC(=O)n2nc(-c3ccccc3)c(N=Nc3ccccc3C)c2-c2ccccc2)cc1" ?
Solution: 81.9

Problem: Param item: "COc1ccc2c(c1)c(-c1nc(-c3cn(C)c4ncccc34)cs1)cn2CCCCN1CCOCC1"
Solution: 3.41

Now turn to the next compound.
Problem: Any idea what TGI was measured for O=C(OC(CNc1c(C(=O)c2ccccc2)c(=O)n(Cc2ccccc2)c(=O)n1Cc1ccccc1)CN1CCCCC1)c1ccccc1 (stereo unspecified) ?
Solution: 40.7

====

- Tested on: OVCAR-3 ovarian
- EXPERIMENTAL PROTOCOL: NCI tumour cell line growth inhibition, 48 h
OBSERVED PROPERTY: TGI

Problem: Any idea what TGI was measured for Cc1cc(S(=O)(=O)Nc2nc(N)nc(N(C)C)n2)c(SC(C(=O)O)c2ccccc2)cc1Cl (stereo not given) ?
Solution: > 10 µM

Problem: Param item: CC(=O)NC(CCCOC(C)=O)C(=O)NC(CCCOC(C)=O)C(=O)NC(CCCOC(C)=O)C(=O)NC(Cc1ccc([N+](=O)[O-])cc1)C(=O)NCC(=O)OCc1ccccc1 (stereo not given)
Solution: > 100 µM

Problem: Param item: Nc1nc(NCC2(CO)CC(CCc3ccccc3)C2)cc(=O)[nH]1 (stereo not given)
Solution: > 100 µM

Problem: Param item: "CN/N=C(/CC(=O)c1sc(-n2nc(-c3ccccc3)cc2-c2ccccc2)nc1C)C(=O)Nc1ccc(Cl)c(Cl)c1"
Solution: > 100 µM

Further cases:
Problem: Any idea what TGI was measured for NC(N)=NCCCC(NCc1c2ccccc2[n+]([O-])c2ccccc12)C(=O)O (stereo not given) ?
Solution: > 100 µM

====

- System: SF-295 CNS
- EXPERIMENTAL PROTOCOL: NCI tumour cell line growth inhibition, 48 h
This listing pairs compounds with measured TGI.

Problem: Any idea what TGI was measured for "O=C(CC(=O)c1cccc([N+](=O)[O-])c1)C(=O)Nc1nc([N+](=O)[O-])cs1" ?
Solution: > 100 µM

Problem: Param item: "Cc1ccc(Cc2nn(C)c(=O)n2-n2cccc2)cc1"
Solution: > 100 µM

Problem: Param item: "CCN(CC)c1nc(=O)c(C(=O)C(C)(C)C)c(C(C)(C)C)o1"
Solution: > 100 µM

====

This listing pairs compounds with measured GI50.
- System: UO-31 renal
- EXPERIMENTAL PROTOCOL: NCI tumour cell line growth inhibition, 48 h

Problem: Any idea what GI50 was measured for O=C(OC(CNc1c(C(=O)c2ccccc2)c(=O)n(Cc2ccccc2)c(=O)n1Cc1ccccc1)CN1CCCCC1)c1ccccc1 (centres undefined) ?
Solution: 16700 nM

Further cases:
Problem: Any idea what GI50 was measured for "O=C(Nc1ccc(Cl)cc1F)c1cc(Cl)ccc1O" ?
Solution: 208 nM

Problem: Param item: "O=C(Nc1ccc(O)c(NS(=O)(=O)c2ccc(F)cc2)c1)c1ccc(-c2ccccc2)cc1"
Solution: 3350 nM

Problem: Param item: "COc1cc(CCNc2nc3cc(N)cc(N)c3nc2-c2ccccc2)cc(OC)c1"
Solution: 1940 nM

Problem: Param item: "CC(C)NCCCCCNc1cc(O)cc2cccnc12"
Solution: 85200 nM

Problem: Param item: "CCCN(CCC)c1ccc(/C=N/NC(=O)c2cccnc2)cc1"
Solution: 43300 nM

Problem: Param item: "O=C1c2ccccc2CCC1(Br)Br"
Solution: 1270 nM

Problem: Param item: "O=C1C(Cl)=C(Nc2ccccn2)C(=O)c2ccccc21"
Solution: 2270 nM

Problem: Param item: COCO[C@@H]1CC2C=Nc3cc(OCc4ccccc4)c(OC)cc3C(=O)N2C1 (some centres undefined)
Solution: 237 nM

====

This listing pairs compounds with measured TGI.
- Test system: K-562 leukemia
- EXPERIMENTAL PROTOCOL: NCI tumour cell line growth inhibition, 48 h

A selection of reference data follows.
Problem: Any idea what TGI was measured for "COc1ccc2c(c1)c(-c1nc(-c3cn(C)c4ncccc34)cs1)cn2CCCCN1CCOCC1" ?
Solution: 1.61 µM

Problem: Param item: "CCCCCCCCCCNC(=S)OCCCC"
Solution: 36.6 µM

Problem: Param item: CC(C)N(C(=O)C12C3C4C5C3C1(C#N)C5C42)C(C)C (centres undefined)
Solution: > 100 µM

Further cases:
Problem: Any idea what TGI was measured for "CCCCCCCCCCCCCCCCNc1ccc2c(c1)OCCOCCOCCOCCO2" ?
Solution: 10.7 µM

Problem: Param item: "c1ccc(C2=NN[C@H](c3cn(-c4ccccc4)nc3-c3ccccc3)C2)cc1"
Solution: > 100 µM

====

- Test system: IGROV1 ovarian
- EXPERIMENTAL PROTOCOL: NCI tumour cell line growth inhibition, 48 h; in the data active = GI50 below about 0.43 µM; inactive = the rest
Choose one outcome from this list and give only that: active, inactive

Example results:
Problem: Please share the test call associated with "N#C/C(=C\c1ccc([N+](=O)[O-])s1)c1nc2cc(Br)ccc2s1" .
Solution: active

Problem: Param item: "N=C(N)c1ccc(-c2ccc(-c3ccc(Cl)c(Cl)c3)o2)nc1"
Solution: inactive

Problem: Param item: "CN1CCN(CCCOc2ccc3nc(Nc4ccc(C(F)(F)F)c(Cl)c4)ccc3c2)CC1"
Solution: inactive

Problem: Param item: Nc1ncnc2c1c(C(=O)NO)cn2C1OC(CO)C(O)C1O (centres undefined)
Solution: active

Problem: Param item: "CC(C)NCCCCCNc1cc(O)cc2cccnc12"
Solution: inactive

Further cases:
Problem: Please share the test call associated with CCC[CH2][Ge]([CH2]CCC)([CH2]CCC)[O]C(=O)C(OC(C)=O)c1ccccc1 (centres undefined) .
Solution: inactive

Problem: Param item: "COc1cc(/C=N/Nc2ncnc3c2cnn3Cc2ccccc2)ccc1O"
Solution: inactive

Problem: Param item: C/C=C1\C[C@@H]2C(OC)Nc3cc(O)c(OC)cc3C(=O)N2C1 (some centres undefined)
Solution: active

Problem: Param item: "CC(=O)Nc1ccc(S(=O)(=O)c2ccc(NC(C)=O)cc2)cc1"
Solution: inactive

Problem: Param item: "CC#CC(=O)N[C@H]1CCCN(c2c(F)cc(C(N)=O)c3[nH]c(C)c(C)c23)C1"
Solution: inactive

Problem: Param item: "CCCN(CCC)c1ccc(/C=N/NC(=O)c2cccnc2)cc1"
Solution: inactive

Problem: Param item: "COc1ccc2cc(C(=O)/C=C/c3ccco3)ccc2c1"
Solution: inactive

Problem: Param item: "C[CH2][Sn]([Cl])([CH2]C)[CH2]C"
Solution: inactive

Problem: Param item: "O=c1cc(-c2ccccc2)nc2cc(-c3ccco3)[nH]n12"
Solution: inactive
